src = ChEMBL document CHEMBL4364260

Experiment: Antiviral activity against Human respiratory syncytial virus A strain Long infected in human Hep2 cells assessed as reduction in virus induced cytopathic effect in presence of 10% FBS after 5 days by CCK-8 assay
Type: functional, cell-based
Conditions: HEp-2, 120 h
pEC50: −log10 of the molar value.
Below, each entry is listed with its recorded pEC50.
MEASURED QUANTITY: pEC50

{"columns": ["SAMPLE SMILES", "RESULT COMPARATOR", "REPORTED"],
 "data": [
  ["COc1ccc2c(c1)S(=O)(=O)CCN(c1cc(NCC3(N)COC3)c3ccccc3n1)C2", "=", 8.10],
  ["Cc1ccc2nc(N3CCS(=O)(=O)c4ccc(O)cc4C3)cc(NCC3(N)COC3)c2c1", "=", 9.10],
  ["Cc1cc2c(NCC3(N)COC3)cc(N3CCS(=O)(=O)c4ccccc4C3)nc2c(F)c1F", "=", 6.29],
  ["Cc1ccc2nc(N3CCS(=O)(=O)c4ccccc4C3)nc(NCC(C)(C)N)c2c1", "=", 7.80],
  ["Cc1cc2c(NCC3(N)COC3)cc(N3CCS(=O)(=O)c4ccccc4C3)nc2cc1F", "=", 7.68],
  ["NC1(CNc2cc(N3CCS(=O)(=O)c4ccccc4C3)cc3ccccc23)COC1", "<", 4.50],
  ["Cc1ccc2c(c1)S(=O)(=O)CCN(c1cc(NCC3(N)COC3)c3ccccc3n1)C2", "=", 7.13],
  ["NC1(CNc2cc(N3CCS(=O)(=O)c4ccccc4C3)nc3ccncc23)COC1", "=", 7.92],
  ["Cc1ccc2nc(N3CCS(=O)(=O)c4ccccc4C3)cc(NCC3(N)COC3)c2c1", "=", 8.70],
  ["Cc1ccc2nc(N3CCS(=O)(=O)c4c(F)cccc4C3)cc(NCC3(N)COC3)c2c1", "=", 8.52],
  ["Cc1ccc2cc(N3CCS(=O)(=O)c4ccccc4C3)nc(NCC3(N)COC3)c2c1", "=", 6.66],
  ["CC(C)(O)c1ccc2nc(N3CCS(=O)(=O)c4ccccc4C3)cc(NCC3(N)COC3)c2c1", "<", 4.00]
]}
